Molecular target: Ba/F3-FGFR1-transfected cells (Homo sapiens)
Sequence (P11362 whole entry, change not shown): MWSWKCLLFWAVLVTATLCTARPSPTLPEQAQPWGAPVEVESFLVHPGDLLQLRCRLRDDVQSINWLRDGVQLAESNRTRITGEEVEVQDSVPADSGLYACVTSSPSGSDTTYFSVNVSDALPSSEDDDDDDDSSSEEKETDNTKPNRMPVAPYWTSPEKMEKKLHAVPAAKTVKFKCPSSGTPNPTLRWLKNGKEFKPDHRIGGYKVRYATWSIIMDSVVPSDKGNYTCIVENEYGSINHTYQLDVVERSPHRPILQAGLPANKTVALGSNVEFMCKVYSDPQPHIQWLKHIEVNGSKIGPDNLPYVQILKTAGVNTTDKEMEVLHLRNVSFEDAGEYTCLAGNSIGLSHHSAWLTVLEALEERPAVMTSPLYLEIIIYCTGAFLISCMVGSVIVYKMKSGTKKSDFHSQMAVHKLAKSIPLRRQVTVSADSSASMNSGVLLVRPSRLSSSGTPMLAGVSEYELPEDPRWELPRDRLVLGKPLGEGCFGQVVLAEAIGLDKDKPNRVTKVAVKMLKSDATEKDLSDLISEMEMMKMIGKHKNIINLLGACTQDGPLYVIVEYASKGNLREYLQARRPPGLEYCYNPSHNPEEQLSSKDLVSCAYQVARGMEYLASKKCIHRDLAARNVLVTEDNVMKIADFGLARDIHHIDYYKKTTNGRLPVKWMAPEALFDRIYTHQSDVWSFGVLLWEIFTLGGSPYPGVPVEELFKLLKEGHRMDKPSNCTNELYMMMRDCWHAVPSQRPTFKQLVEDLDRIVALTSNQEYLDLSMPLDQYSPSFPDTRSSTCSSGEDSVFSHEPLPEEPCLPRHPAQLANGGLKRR
Assay: Ba/F3-FGFR1 (minus IL3) cellular proliferation assay, Alamar Blue
Type: cell-based
Settings: minus IL3, 384 well
Procedure: Ba/F3-FGFR1 (Minus IL3 or Plus IL3) (Cellular Proliferation Assay) Cells were put in an incubator at 37° C. and 5% CO2. After 24 hours, 10 μl of Alamar Blue solution (0.5 mM K3Fe(CN)6, 0.5 mM KaFe(CN)6, 0.15 mM Resazurin and 100 mM Phosphate Buffer) was added to the wells, incubated for 4 hours at 37° C. and 5% CO2 before RFU's (Relative Fluorescence Units) (ex. 540 nm., em. 590 nm.) were measured in a flurorescence plate reader. […]
experimentalReadout: BAF3-FGFR 1 (MIN IL3) 384 well pIC50
Numbers only.

>>> recordednumber("COc1cc(OC)cc(N(CCNC(C)C)c2ccc3ncc(C(=O)NCCN4CCOCC4)nc3c2)c1 [Compound 160]")
5.86
>>> recordednumber("COc1cc(OC)cc(N(CCNC(C)C)c2ccc3ncc(-c4cccnc4)nc3c2)c1 [Compound 10]")
7.55
>>> recordednumber("COc1cc(OC)cc(N(CCNC(C)C)c2ccc3ncc(-c4ccn[nH]4)nc3c2)c1 [Compound 189]")
7.29

Working through the 5 compounds below one at a time, give BAF3-FGFR 1 (MIN IL3) 384 well pIC50 for each.
1. COc1cc(OC)cc(N(CCO)c2ccc3ncc(-c4ccc(N5CCOCC5)nc4)nc3c2)c1 [Compound 19]
2. COc1cc(OC)cc(N(CCCO)c2ccc3ncc(-c4ccc(C)nc4)nc3c2)c1 [Compound 115]
3. COc1cc(OC)cc(N(CCNC(C)C)c2ccc3ncc(-c4ccccc4)nc3c2)c1 [Compound 121]
4. COc1cc(OC)cc(N(CCCNCCCO)c2ccc3ncc(-c4ccnc(C(=O)NCCCCN)c4)nc3c2)c1 [Compound 132]
5. COc1cc(OC)cc(N(CC(O)CO)c2ccc3ncc(-c4ccc(N)nc4)nc3c2)c1 (stereo not shown) [Compound 74]

Result:
1. 6.41
2. 5.93
3. 6.45
4. 5.8
5. 6.62

Working through the 6 compounds below one at a time, give BAF3-FGFR 1 (MIN IL3) 384 well pIC50 for each.
1. COc1cc(OC)cc(N(CCN2CCN(C(C)=O)CC2)c2ccc3ncc(-c4ccc(N)nc4)nc3c2)c1 [Compound 68]
2. COc1cc(OC)cc(N(CCO)c2ccc3ncc(-c4ccncc4)nc3c2)c1 [Compound 11]
3. COc1cc(OC)cc(N(CCO)c2ccc3ncc(-c4cccnc4)nc3c2)c1 [Compound 9]
4. COc1cc(OC)cc(N(CCCO)c2ccc3ncc(-c4ccc(N5CCOCC5)nc4)nc3c2)c1 [Compound 124]
5. COc1cc(OC)cc(N(CCN2CCOCC2)c2ccc3ncc(-c4ccc(NC(=O)N5CCOCC5)nc4)nc3c2)c1 [Compound 35]
6. COc1cc(OC)cc(N(CCCO)c2ccc3ncc(-c4ccnc(N)c4)nc3c2)c1 [Compound 66]

Result:
6.13
6.01
6.25
6.24
6.36
7.16

###

Biological target: Ba/F3-FGFR1-transfected cells (Homo sapiens)
Experiment: Ba/F3-FGFR1 (minus IL3) cellular proliferation assay, Alamar Blue
Format: cell-based
Conditions: minus IL3, 384 well
# if value of BAF3-FGFR 1 (MIN IL3) 384 well pIC50 reaches 6, tag 1; if it stays below, tag 0

# count of solved cases: 5
>>> grouplabel("COc1cc(OC)cc(N(CCCO)c2ccc3ncc(-c4ccnc(NC(=O)OC(C)(C)C)c4)nc3c2)c1 [Compound 128]")
0
>>> grouplabel("COc1cc(OC)cc(N(CCO)c2ccc3ncc(-c4ccccc4CCO)nc3c2)c1 [Compound 151]")
0
>>> grouplabel("COc1cc(OC)cc(N(CC2CC2)c2ccc3ncc(C(=O)NCCN4CCOCC4)nc3c2)c1 [Compound 96]")
0
>>> grouplabel("COc1cc(OC)cc(N(CCNC(C)C)c2ccc3ncc(C(=O)N4CCN(C)CC4)nc3c2)c1 [Compound 179]")
0
>>> grouplabel("COc1cc(OC)cc(N(CC2CC2)c2ccc3ncc(-c4nnn[nH]4)nc3c2)c1 [Compound 41]")
0

Task: Can COc1cc(OC)cc(N(CC2CC2)c2ccc3ncc(-c4c[nH]cn4)nc3c2)c1 [Compound 39] be said to have BAF3-FGFR 1 (MIN IL3) 384 well pIC50 at or above 6?
Result: 0

Task: Can COc1cc(OC)cc(N(CCCNCC(F)(F)F)c2ccc3ncc(-c4ccnc(C(=O)NCCCCCO)c4)nc3c2)c1 [Compound 150] be said to have BAF3-FGFR 1 (MIN IL3) 384 well pIC50 at or above 6?
Result: 0

Task: Can COc1cc(OC)cc(N(CC2CC2)c2ccc3ncc(C(=O)Nc4cncn4C)nc3c2)c1 [Compound 27] be said to have BAF3-FGFR 1 (MIN IL3) 384 well pIC50 at or above 6?
Result: 0

Task: Can COc1cc(OC)cc(N(CC2CC2)c2ccc3ncc(-c4ccnc(N5CCN(C)CC5)c4)nc3c2)c1 [Compound 37] be said to have BAF3-FGFR 1 (MIN IL3) 384 well pIC50 at or above 6?
Result: 0

Task: Can COc1cc(OC)cc(N(CCO)c2ccc3ncc(-n4cnc(CO)c4)nc3c2)c1 [Compound 38] be said to have BAF3-FGFR 1 (MIN IL3) 384 well pIC50 at or above 6?
Result: 1
